So I've got a bunch of compounds here, and I need their KIDNEY_L values.
Organism: Rattus norvegicus
ASSAY_PROTOCOL: Open TG-GATES - Regimen: Single
Assay type: toxicity, organism-based, Sprague-Dawley
Set-up: regimen Single, gender Male, age 6 weeks
STUDY_CONDITIONS: in vivo, po, 0 mg/kg, 24 h, tissue Kidney, route gavage, dose level Control
Record the value in g, omitting the unit from your answer.

So for CCOC(=O)CCC(=O)O[C@H]1[C@H](O[C@@H]2[C@@H](C)[C@H](O[C@H]3C[C@@](C)(OC)[C@@H](O)[C@H](C)O3)[C@@H](C)C(=O)O[C@H](CC)[C@@](C)(O)[C@H](O)[C@@H](C)C(=O)[C@H](C)C[C@@]2(C)O)O[C@H](C)C[C@@H]1N(C)C [ERYTHROMYCIN ETHYLSUCCINATE] , the logged KIDNEY_L turned out to be 1

So for `Cc1ccc(C)c(OCCCC(C)(C)C(=O)O)c1` , the logged KIDNEY_L turned out to be 1

So for `CC1=C(/C=C/C(C)=C/C=C/C(C)=C/CO)C(C)(C)CCC1` , the logged KIDNEY_L turned out to be 0.9

So for `COC1=CC(=O)C[C@@H](C)[C@]12Oc1c(Cl)c(OC)cc(OC)c1C2=O` , the logged KIDNEY_L turned out to be 1.1

So for CCOc1ccc(NC(=O)CC(C)O)cc1 (configuration not stated) , the logged KIDNEY_L turned out to be 1

So for CC(C)OC(=O)C(C)(C)Oc1ccc(C(=O)c2ccc(Cl)cc2)cc1 [FENOFIBRATE] , the logged KIDNEY_L turned out to be 0.9

So for `O=C(CCCN1CCC(O)(c2ccc(Cl)cc2)CC1)c1ccc(F)cc1` , the logged KIDNEY_L turned out to be 0.9

====

Species: Rattus norvegicus
ASSAY_PROTOCOL: Open TG-GATES - Regimen: Single
Assay type: toxicity, organism-based, Sprague-Dawley
Design: regimen Single, gender Male, age 6 weeks
STUDY_CONDITIONS: in vivo, po, 300 mg/kg, 24 h, tissue Plasma, route gavage, dose level Middle
METRIC_NAME: ALT (IU/L)
Record the value in IU/L, omitting the unit from your answer.

So for CCOC(=O)CCC(=O)O[C@H]1[C@H](O[C@@H]2[C@@H](C)[C@H](O[C@H]3C[C@@](C)(OC)[C@@H](O)[C@H](C)O3)[C@@H](C)C(=O)O[C@H](CC)[C@@](C)(O)[C@H](O)[C@@H](C)C(=O)[C@H](C)C[C@@]2(C)O)O[C@H](C)C[C@@H]1N(C)C [ERYTHROMYCIN ETHYLSUCCINATE] , the logged ALT turned out to be 37.4

So for COC1=CC(=O)C[C@@H](C)[C@]12Oc1c(Cl)c(OC)cc(OC)c1C2=O [GRISEOFULVIN] , the logged ALT turned out to be 42.8

So for COc1ccc2[nH]c([S+]([O-])Cc3ncc(C)c(OC)c3C)nc2c1 (centres undefined) [OMEPRAZOLE] , the logged ALT turned out to be 35

So for NC(N)=Nc1nc(CSCCC(N)=NS(N)(=O)=O)cs1 [FAMOTIDINE] , the logged ALT turned out to be 33.2

====

Species: Rattus norvegicus
ASSAY_PROTOCOL: Open TG-GATES - Regimen: Single
Type: toxicity, organism-based, Sprague-Dawley
Design: regimen Single, gender Male, age 6 weeks
STUDY_CONDITIONS: in vivo, po, 1000 mg/kg, 9 h, tissue Plasma, route gavage, dose level High
So I've got a bunch of compounds here, and I need their GLC values.
Record the value in mg/dL, omitting the unit from your answer.

So for COc1ccc2[nH]c([S+]([O-])Cc3ncc(C)c(OC)c3C)nc2c1 (stereo not given) , the logged GLC turned out to be 195.2

So for `NC(N)=Nc1nc(CSCCC(N)=NS(N)(=O)=O)cs1` , the logged GLC turned out to be 205.6

So for CC(C)OC(=O)C(C)(C)Oc1ccc(C(=O)c2ccc(Cl)cc2)cc1 [FENOFIBRATE] , the logged GLC turned out to be 152.2

So for CCOC(=O)CCC(=O)O[C@H]1[C@H](O[C@@H]2[C@@H](C)[C@H](O[C@H]3C[C@@](C)(OC)[C@@H](O)[C@H](C)O3)[C@@H](C)C(=O)O[C@H](CC)[C@@](C)(O)[C@H](O)[C@@H](C)C(=O)[C@H](C)C[C@@]2(C)O)O[C@H](C)C[C@@H]1N(C)C [ERYTHROMYCIN ETHYLSUCCINATE] , the logged GLC turned out to be 173.8

So for `COC1=CC(=O)C[C@@H](C)[C@]12Oc1c(Cl)c(OC)cc(OC)c1C2=O` , the logged GLC turned out to be 186.4

====

Species on record: Rattus norvegicus
ASSAY_PROTOCOL: Open TG-GATES - Regimen: Daily Repeat
Format: toxicity, organism-based, Sprague-Dawley
Set-up: regimen Daily Repeat, gender Male, age 6 weeks
STUDY_CONDITIONS: in vivo, po, 0 mg/kg, […], tissue Blood, route gavage, dose level Control, time 28 day
METRIC_NAME: Lym (%)
Record the value in %, omitting the unit from your answer.

So for O=C(CCCN1CCC(O)(c2ccc(Cl)cc2)CC1)c1ccc(F)cc1 [HALOPERIDOL] , the logged Lym turned out to be 80.8

So for COC1=CC(=O)C[C@@H](C)[C@]12Oc1c(Cl)c(OC)cc(OC)c1C2=O [GRISEOFULVIN] , the logged Lym turned out to be 82.4

So for `CN(C)CCN(Cc1cccs1)c1ccccn1` , the logged Lym turned out to be 79

So for CCOc1ccc(NC(=O)CC(C)O)cc1 (centres undefined) [BUCETIN] , the logged Lym turned out to be 79.4

====

Species on record: Rattus norvegicus
ASSAY_PROTOCOL: Open TG-GATES - Regimen: Single
Type: toxicity, organism-based, Sprague-Dawley
Parameters: regimen Single, gender Male, age 6 weeks
STUDY_CONDITIONS: in vivo, po, 100 mg/kg, 6 h, tissue Plasma, route gavage, dose level High
METRIC_NAME: TP (g/dL)
Record the value in g/dL, omitting the unit from your answer.

So for `CN(C)CCCN1c2ccccc2CCc2ccccc21` , the logged TP turned out to be 5.4

So for `CN(C)CCCN1c2ccccc2CCc2ccc(Cl)cc21` , the logged TP turned out to be 5.2

So for `CC1=C(/C=C/C(C)=C/C=C/C(C)=C/CO)C(C)(C)CCC1` , the logged TP turned out to be 5.4

So for `CN(C)CCN(Cc1cccs1)c1ccccn1` , the logged TP turned out to be 5.2

====

Species on record: Rattus norvegicus
ASSAY_PROTOCOL: Open TG-GATES - Regimen: Single
Assay type: toxicity, organism-based, Sprague-Dawley
Set-up: regimen Single, gender Male, age 6 weeks
STUDY_CONDITIONS: in vivo, po, 10 mg/kg, 3 h, tissue Blood, route gavage, dose level Low
METRIC_NAME: WBC (x10_2/uL)
Record the value in x10_2/uL, omitting the unit from your answer.

So for `CN(C)CCN(Cc1cccs1)c1ccccn1` , the logged WBC turned out to be 82

So for CN(C)CCCN1c2ccccc2CCc2ccc(Cl)cc21 [CLOMIPRAMINE] , the logged WBC turned out to be 74.4

So for CC1=C(/C=C/C(C)=C/C=C/C(C)=C/CO)C(C)(C)CCC1 [RETINOL] , the logged WBC turned out to be 95.9

So for CN(C)CCCN1c2ccccc2CCc2ccccc21 [IMIPRAMINE] , the logged WBC turned out to be 74.5

====

Species: Rattus norvegicus
ASSAY_PROTOCOL: Open TG-GATES - Regimen: Single
Type: toxicity, organism-based, Sprague-Dawley
Parameters: regimen Single, gender Male, age 6 weeks
STUDY_CONDITIONS: in vivo, po, 100 mg/kg, 6 h, tissue Blood, route gavage, dose level High
METRIC_NAME: Fbg (mg/dL)
Record the value in mg/dL, omitting the unit from your answer.

So for CN(C)CCCN1c2ccccc2CCc2ccccc21 [IMIPRAMINE] , the logged Fbg turned out to be 299.4

So for CN(C)CCCN1c2ccccc2CCc2ccc(Cl)cc21 [CLOMIPRAMINE] , the logged Fbg turned out to be 276

So for `CN(C)CCN(Cc1cccs1)c1ccccn1` , the logged Fbg turned out to be 282.2

So for CC1=C(/C=C/C(C)=C/C=C/C(C)=C/CO)C(C)(C)CCC1 [RETINOL] , the logged Fbg turned out to be 292.8

====

Organism: Rattus norvegicus
ASSAY_PROTOCOL: Open TG-GATES - Regimen: Single
Format: toxicity, organism-based, Sprague-Dawley
Set-up: regimen Single, gender Male, age 6 weeks
STUDY_CONDITIONS: in vivo, po, 1000 mg/kg, 24 h, tissue Blood, route gavage, dose level High
METRIC_NAME: Neu (%)
Record the value in %, omitting the unit from your answer.

So for CCOC(=O)CCC(=O)O[C@H]1[C@H](O[C@@H]2[C@@H](C)[C@H](O[C@H]3C[C@@](C)(OC)[C@@H](O)[C@H](C)O3)[C@@H](C)C(=O)O[C@H](CC)[C@@](C)(O)[C@H](O)[C@@H](C)C(=O)[C@H](C)C[C@@]2(C)O)O[C@H](C)C[C@@H]1N(C)C [ERYTHROMYCIN ETHYLSUCCINATE] , the logged Neu turned out to be 8.8

So for `NC(N)=Nc1nc(CSCCC(N)=NS(N)(=O)=O)cs1` , the logged Neu turned out to be 17.2

So for COc1ccc2[nH]c([S+]([O-])Cc3ncc(C)c(OC)c3C)nc2c1 (centres undefined) , the logged Neu turned out to be 13.4

So for `COC1=CC(=O)C[C@@H](C)[C@]12Oc1c(Cl)c(OC)cc(OC)c1C2=O` , the logged Neu turned out to be 16.8
